B1: Caulobacter ParB omega fusion; a variant is named by its letters at X, in order, B8GW30 (parent)
chain: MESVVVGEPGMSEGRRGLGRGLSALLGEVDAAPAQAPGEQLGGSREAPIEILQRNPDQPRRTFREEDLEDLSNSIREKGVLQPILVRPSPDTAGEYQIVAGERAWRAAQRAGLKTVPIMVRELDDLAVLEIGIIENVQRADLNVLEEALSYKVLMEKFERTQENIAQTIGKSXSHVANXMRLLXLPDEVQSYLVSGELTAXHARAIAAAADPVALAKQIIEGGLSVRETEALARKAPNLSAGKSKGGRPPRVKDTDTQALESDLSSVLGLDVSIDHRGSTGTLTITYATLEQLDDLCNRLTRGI

variants of: B1; assay: one-hybrid fitness for binding NBS DNA (the Noc-binding site; scaled: cognate 1, non-cognate 0); higher = stronger binding; conditions: with NBS DNA site
The full ranking holds about 81,000 sequences; the median of “one-hybrid fitness for binding NBS DNA” is about -0.1, and the highest 2% start at about 0.36. The sample as a whole holds a higher share of the highest values than the screen did.
The following variants are listed with their measured one-hybrid fitness for binding NBS DNA values.

variant_id: QQVG
one-hybrid fitness for binding NBS DNA: ≤ 0.2

Measured one-hybrid fitness for binding NBS DNA, "YDAI" : ≤ 0.2

Per the record, "QCCN" has one-hybrid fitness for binding NBS DNA of ≤ 0.2
